Where do the numbers come from? From paper PMC12155096.

Endpoint: CYP3A4 IC50 (half-maximal inhibitory concentration). System: CYP3A4 (Homo sapiens). Items follow.
Sequence (P08684 whole entry): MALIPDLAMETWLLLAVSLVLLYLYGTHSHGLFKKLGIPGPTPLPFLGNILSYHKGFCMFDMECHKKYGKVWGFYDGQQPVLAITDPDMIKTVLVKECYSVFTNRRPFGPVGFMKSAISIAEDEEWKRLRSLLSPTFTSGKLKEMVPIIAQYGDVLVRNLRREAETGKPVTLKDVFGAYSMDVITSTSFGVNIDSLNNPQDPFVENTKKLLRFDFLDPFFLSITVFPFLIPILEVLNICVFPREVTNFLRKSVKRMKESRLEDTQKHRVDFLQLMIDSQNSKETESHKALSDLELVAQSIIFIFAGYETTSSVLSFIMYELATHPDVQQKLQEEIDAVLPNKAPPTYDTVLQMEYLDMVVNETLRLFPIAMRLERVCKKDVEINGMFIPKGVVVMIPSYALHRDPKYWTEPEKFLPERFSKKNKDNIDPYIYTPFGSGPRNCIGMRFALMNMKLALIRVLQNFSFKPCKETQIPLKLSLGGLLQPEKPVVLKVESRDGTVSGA
Counter-ions that a name gives are not always drawn.

Take a look at these entries with their results.
[[record]]
compound = "CCN(CC)C(=O)SCc1ccc(Cl)cc1 [Thiobencarb]"
experimental_result = "Inactive"

[[record]]
compound = "Clc1ccc(C(c2ccc(Cl)cc2)C(Cl)Cl)cc1 [p,p'-DDD]"
experimental_result = "Inactive"

[[record]]
compound = "CC(COc1ccccc1)N(CCCl)Cc1ccccc1 (centres unmarked) [Phenoxybenzamine hydrochloride]"
experimental_result = "Inactive"

[[record]]
compound = "CN1[C@@H]2CC[C@H]1C[C@@H](NC(=O)n1c(=O)[nH]c3ccccc31)C2 [Itasetron]"
experimental_result = "Inactive"

[[record]]
compound = "OCC(c1ccc(Cl)cc1)c1ccc(Cl)cc1 [2,2-Bis(4-chlorophenyl)ethanol]"
experimental_result = "18.71 ± 6.46 (64 ± 10) µM"


INPUT: Please report the recorded CYP3A4 IC50 (half-maximal inhibitory concentration) for CCOC(CN1CCN(CC(C)C(=O)c2ccccc2)CC1)c1ccccc1.Cl.Cl (centres unmarked) [Eprazinone dihydrochloride] .
OUTPUT: 15.16 ± 1.74 (64 ± 2) µM

INPUT: What does the data say about its CYP3A4 IC50 (half-maximal inhibitory concentration)? Entry: Cl.FC(F)(F)c1cccc(C2=CCN(CCc3ccc4ccccc4c3)CC2)c1 [Xaliproden hydrochloride]
OUTPUT: 19.77 ± 4.14 (120 ± 18) µM

INPUT: Name the recorded CYP3A4 IC50 (half-maximal inhibitory concentration) for O=S(=O)([O-])C(F)(F)C(F)(F)C(F)(F)C(F)(F)C(F)(F)C(F)(F)C(F)(F)C(F)(F)F.[Li+] [Lithium perfluorooctane sulfonate] .
OUTPUT: Inactive

###

assay.system: human CYP2D6 (Homo sapiens)
Sequence (P10635 whole entry): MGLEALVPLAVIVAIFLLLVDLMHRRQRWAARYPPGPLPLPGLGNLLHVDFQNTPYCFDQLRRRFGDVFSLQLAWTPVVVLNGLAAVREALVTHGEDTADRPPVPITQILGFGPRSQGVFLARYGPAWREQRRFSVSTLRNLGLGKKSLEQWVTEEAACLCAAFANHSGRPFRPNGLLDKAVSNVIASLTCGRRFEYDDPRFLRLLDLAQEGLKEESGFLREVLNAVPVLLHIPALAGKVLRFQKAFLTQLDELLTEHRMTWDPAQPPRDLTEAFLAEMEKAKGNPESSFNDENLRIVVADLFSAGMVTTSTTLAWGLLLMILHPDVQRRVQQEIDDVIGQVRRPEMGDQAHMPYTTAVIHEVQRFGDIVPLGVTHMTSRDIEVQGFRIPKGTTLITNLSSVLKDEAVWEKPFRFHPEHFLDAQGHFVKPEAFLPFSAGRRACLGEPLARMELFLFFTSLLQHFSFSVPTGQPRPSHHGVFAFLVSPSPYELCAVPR
result.type: CYP2D6 AC50 (half-maximal activity concentration)

[[record]]
molecule = "O=C(O)CCCc1c[nH]c2ccccc12"
experimental_result = "Inactive"

[[record]]
molecule = "CC(C)CC(O)Cc1ccccc1 (stereo not drawn)"
experimental_result = "Inactive"

[[record]]
molecule = "CC(C)N(C(=O)SCC(Cl)=C(Cl)Cl)C(C)C [Tri-allate]"
experimental_result = "Inactive"

[[record]]
molecule = "CNC(=O)Oc1ccccc1C(C)C"
experimental_result = "Inactive"

[[record]]
molecule = "C#C[C@]1(OC(C)=O)CC[C@H]2[C@@H]3CCC4=C[C@@H](OC(C)=O)CC[C@@H]4[C@H]3CC[C@@]21C [Ethynodiol diacetate]"
experimental_result = "Inactive"


INPUT: Quick one: CYP2D6 AC50 (half-maximal activity concentration) for CC(=O)OCC(=O)[C@@]1(OC(C)=O)[C@@H](C)C[C@H]2[C@@H]3C[C@H](F)C4=CC(=O)C=C[C@]4(C)[C@@]3(F)[C@@H](O)C[C@@]21C [Diflorasone diacetate] ?
OUTPUT: Inactive

INPUT: Quick one: CYP2D6 AC50 (half-maximal activity concentration) of CCOC(=O)C(O)(c1ccc(Cl)cc1)c1ccc(Cl)cc1 [Chlorobenzilate] ?
OUTPUT: Inconclusive inhibitor

INPUT: Would you kindly share the measured CYP2D6 AC50 (half-maximal activity concentration) for COc1ccc(C(=O)c2ccc(O)cc2)c(OC)c1 [2,4-Dimethoxy-4'-hydroxy benzophenone] ?
OUTPUT: Inconclusive inhibitor

###

assay.system: human CYP2D6 (Homo sapiens)
assay.remarks: biochemical
run.parameters: CYP2D6 IC50 (half-maximal inhibitory concentration)
Where a name gives a salt, the structure may show the parent alone.
result.type: pIC50
The value called pIC50 is obtained by taking minus log10 of the concentration in mol/L.

Example compounds with recorded pIC50:
[[record]]
compound = "CCCCOCCOCCOCc1cc2c(cc1CCC)OCO2 [Piperonyl butoxide]"
assay_system = "human CYP2D6 (Homo sapiens)"
result_type = "pIC50"
experimental_result = 5.17

[[record]]
compound = "CCCCC(C#N)(Cn1cncn1)c1ccc(Cl)cc1 (centres unmarked) [Myclobutanil]"
assay_system = "human CYP2D6 (Homo sapiens)"
result_type = "pIC50"
experimental_result = 4.31

[[record]]
compound = "CC(Cc1cccc(C(F)(F)F)c1)NCCOC(=O)c1ccccc1 (centres unmarked) [Benfluorex hydrochloride]"
assay_system = "human CYP2D6 (Homo sapiens)"
result_type = "pIC50"
experimental_result = 7.10

[[record]]
compound = "CCOC(=O)[C@H](CCc1ccccc1)N[C@H]1CCc2ccccc2N(CC(=O)O)C1=O [Benazepril]"
assay_system = "human CYP2D6 (Homo sapiens)"
result_type = "pIC50"
experimental_result = 4.53

[[record]]
compound = "CCCC(=O)O[C@]1(C(=O)CCl)[C@@H](C)C[C@H]2[C@@H]3CCC4=CC(=O)C=C[C@]4(C)[C@@]3(F)C(=O)C[C@@]21C [Clobetasone butyrate]"
assay_system = "human CYP2D6 (Homo sapiens)"
result_type = "pIC50"
experimental_result = 5.11


INPUT: Reported pIC50 for COc1ccc(CN(CCN(C)C)c2ncccn2)cc1 [Thonzylamine hydrochloride] : what is it?
OUTPUT: 6.15

INPUT: Entry CC(C)=CCOc1c2occc2cc2ccc(=O)oc12 [Imperatorin] has what pIC50?
OUTPUT: 5.33

INPUT: Item under review: COCCOC(=O)C1=C(C)NC(C)=C(C(=O)OC/C=C/c2ccccc2)C1c1cccc([N+](=O)[O-])c1 (centres unmarked) [Cilnidipine] . Reported pIC50?
OUTPUT: 4.54

###

assay.system: human CYP2C19 (Homo sapiens, UniProt P33261)
Sequence (P33261 whole entry): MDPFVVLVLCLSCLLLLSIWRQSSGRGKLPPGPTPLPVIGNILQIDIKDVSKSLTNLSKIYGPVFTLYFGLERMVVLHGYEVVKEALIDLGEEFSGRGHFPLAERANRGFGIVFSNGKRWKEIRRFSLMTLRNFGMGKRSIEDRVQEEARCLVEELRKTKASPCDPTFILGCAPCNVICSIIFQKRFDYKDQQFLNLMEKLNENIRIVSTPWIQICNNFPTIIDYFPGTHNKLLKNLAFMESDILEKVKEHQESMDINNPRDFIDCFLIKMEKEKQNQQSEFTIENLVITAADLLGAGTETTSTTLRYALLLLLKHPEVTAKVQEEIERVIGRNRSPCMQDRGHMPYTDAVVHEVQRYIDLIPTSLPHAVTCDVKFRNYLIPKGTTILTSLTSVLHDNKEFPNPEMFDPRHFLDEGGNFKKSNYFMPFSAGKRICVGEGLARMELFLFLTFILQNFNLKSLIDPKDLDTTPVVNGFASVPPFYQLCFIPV
pIC50: −log10 of the molar value.
// NO strictly below 5 in pIC50; YES otherwise

INPUT: Item c1cc(CCCc2ccncc2)ccn1 with pIC50 of 5 or above?
OUTPUT: YES

###

So I've got CYP2C19 AC50 (half-maximal activity concentration) readings for human CYP2C19 (Homo sapiens, UniProt P33261), take a look.

Look over these answered cases.
[[record]]
molecule = "CN(C)CCc1c[nH]c2ccccc12.O=C(O)/C=C/C(=O)O [N,N-Dimethyltryptamine fumarate]"
experimental_result = "Inactive"

[[record]]
molecule = "O=C(O)C1(C(=O)Nc2ccc(Cl)cc2Cl)CC1 [Cyclanilide]"
experimental_result = "Inconclusive inhibitor"

[[record]]
molecule = "O=S(=O)(O)c1cc(Cl)c(Cl)cc1Cl [2,4,5-Trichlorobenzenesulfonic acid]"
experimental_result = "Inconclusive inhibitor"

[[record]]
molecule = "O=C(O)c1cc(Cl)cc(Cl)c1O [3,5-Dichlorosalicylic acid]"
experimental_result = "Inactive"


# context switch: different molecule, same CYP2C19 AC50 (half-maximal activity concentration)
INPUT: Give the reported CYP2C19 AC50 (half-maximal activity concentration) for Oc1nc(Cl)c(Cl)cc1Cl [3,5,6-Trichloro-2-pyridinol] (system: human CYP2C19 (Homo sapiens, UniProt P33261)).
OUTPUT: Inconclusive inhibitor

###

Quick record of log10 of AC50 values for human CYP2C9 (Homo sapiens, UniProt P11712).
Note the log scale: values are log10 of AC50 expressed in µM.

[[record]]
molecule = "CC(c1ccc(O)cc1)c1ccc(O)cc1"
experimental_result = 1.59

[[record]]
molecule = "O=C(c1ccc(O)cc1)c1ccc(O)cc1O [2,4,4'-Trihydroxybenzophenone]"
experimental_result = 0.50

[[record]]
molecule = "C=C(C)C(=O)OCC(O)COc1ccc(C(C)(C)c2ccc(OCC(O)COC(=O)C(=C)C)cc2)cc1 (centres unmarked) [Bisphenol A glycidyl methacrylate]"
experimental_result = 0.54

[[record]]
molecule = "O=C(O)C(F)(F)C(F)(F)C(F)(F)C(F)(F)C(F)(F)C(F)(F)C(F)(F)F"
experimental_result = 0.40

[[record]]
molecule = "BrCc1cccc(Oc2ccccc2)c1"
experimental_result = 1.92

[[record]]
molecule = "OCc1cccc(Oc2ccccc2)c1"
experimental_result = 1.75


INPUT: What measured log10 of AC50 goes with Clc1cnc(Oc2ccc(Oc3ncc(Cl)cc3Cl)cc2)c(Cl)c1 ?
OUTPUT: 0.37

INPUT: Give the measured log10 of AC50 of O=S1(=O)CC(Cl)(Cl)C(Cl)(Cl)C1 .
OUTPUT: 1.44

INPUT: Can you share its log10 of AC50? I mean this molecule: CC(=O)OC1(c2ccccc2)CCN(CCc2ccccc2)CC1
OUTPUT: 1.73

INPUT: So what's the measured log10 of AC50 for this one? O=C(O)C1(C(=O)Nc2ccc(Cl)cc2Cl)CC1 [Cyclanilide]
OUTPUT: 1.27

INPUT: Query: log10 of AC50; subject: CC1=Nc2ccc3ccccc3c2C1(C)C [1,1,2-Trimethyl-1H-benzo[e]indole]
OUTPUT: 1.71

INPUT: For CC(=O)OC(C(=O)c1ccccc1)c1ccccc1 (centres unmarked) [Benzoin acetate] , what is its reported log10 of AC50?
OUTPUT: 1.52

INPUT: Look up log10 of AC50 for this molecule: CCNS(=O)(=O)c1ccc(C)cc1 [N-Ethyl-4-methylbenzenesulfonamide]
OUTPUT: 1.51

INPUT: I have this molecule here, CCC(=O)O[C@@H]1C=C2CC[C@@H]3[C@H](CC[C@]4(C)[C@@H](OC(=O)CC)CC[C@@H]34)C2CC1 (some centres unmarked) [Bolandiol dipropionate] , and I need its recorded log10 of AC50.
OUTPUT: 1.19

INPUT: Which log10 of AC50 value belongs to C=C(C)C(=O)OCCCCCCOC(=O)C(=C)C [1,6-Hexanediol dimethacrylate] ?
OUTPUT: 1.57

INPUT: Consider the molecule shown here: O=C(C=Cc1ccccc1)OCCCc1ccccc1 [3-Phenylpropyl cinnamate] What is its recorded log10 of AC50?
OUTPUT: 1.29

INPUT: Request the reported log10 of AC50 associated with Cc1ccc(C(C)OC(=O)[C@]2(C)CC[C@H](C(=O)O)C2(C)C)cc1.OCCNCCO (some centres unmarked)
OUTPUT: 1.56

INPUT: Recorded log10 of AC50 of CCOC(=O)CC(=O)Cc1cc(F)c(Cl)nc1Cl , please.
OUTPUT: 1.67

INPUT: State the recorded log10 of AC50 for this entry: O=C1NC(=O)c2cccc3cccc1c23 [1H-Benzo[de]isoquinoline-1,3(2H)-dione]
OUTPUT: 1.52

INPUT: // lookup log10 of AC50 for CCCC(C)c1ccccc1O (centres unmarked)
OUTPUT: 1.69

INPUT: Given the molecule COC(=O)c1cc(S(N)(=O)=O)ccc1OC [Methyl 5-sulfamoyl-o-anisate] , what is its reported log10 of AC50?
OUTPUT: 1.49

INPUT: # lookup: log10 of AC50 of CCCCCCCCCCCCCOP(=O)(O)O [Monotridecyl phosphate]
OUTPUT: 1.75
